Tested on: HCT-116 colon
experiment.notes: NCI-60 one-dose screen, 48 h (100 = growth as untreated, 0 = no growth, -100 = all killed)
study.conditions: 10 µM unless noted
About 83,000 compounds went through this panel and 20% of them were active in at least one assay; those are over-represented in the sample as a whole.
Each entry gets FALSE if its growth stays under 70%, and TRUE if its growth is 70% or above.

[
  {
    "smiles.record": "O=C(CN1C(=O)S/C(=C\\c2ccccc2)C1=O)Nc1ccc(C(=O)/C=C/c2cc3ccccc3nc2Cl)cc1",
    "class": "FALSE"
  },
  {
    "smiles.record": "COc1ccc(-c2ccc3c4c(cccc24)C(=O)N(N2C(=O)c4cccc5cccc(c45)C2=O)C3=O)cc1",
    "class": "TRUE"
  },
  {
    "smiles.record": "O=C(c1cccc(F)c1)n1ccc2cc(NC(=S)Nc3cccnc3)ccc21",
    "class": "TRUE"
  },
  {
    "smiles.record": "Cc1cc(=O)n2nc(-c3cn(C)c4ccc(Cl)cc34)sc2n1",
    "class": "TRUE"
  },
  {
    "smiles.record": "COc1ccc(OC)c(NC2=C(Cl)C(=O)C(C)=C(C)C2=O)c1",
    "class": "FALSE"
  },
  {
    "smiles.record": "O=C(CCCCCCN1CC(=O)N2[C@@H](c3cc(F)cc(F)c3)c3[nH]c4ccccc4c3C[C@H]2C1=O)NO",
    "class": "FALSE"
  },
  {
    "smiles.record": "COc1ccc(-c2nn(-c3ccccc3)cc2/C=C/C(=O)c2ccc(NC(=O)CCCCCCC(=O)NO)cc2)cc1",
    "class": "TRUE"
  },
  {
    "smiles.record": "N#C/C(=C\\c1ccc(Cl)cc1Cl)C(N)=O",
    "class": "TRUE"
  },
  {
    "smiles.record": "COc1cc(CNC(=O)Cc2ccccc2[N+](=O)[O-])ccc1OCC(=O)NO",
    "class": "TRUE"
  }
]
